Please respond with reported inhibition for every item in the list.
- System Tested: Cholinesterase (Homo sapiens)
- Sequence (P06276 whole entry): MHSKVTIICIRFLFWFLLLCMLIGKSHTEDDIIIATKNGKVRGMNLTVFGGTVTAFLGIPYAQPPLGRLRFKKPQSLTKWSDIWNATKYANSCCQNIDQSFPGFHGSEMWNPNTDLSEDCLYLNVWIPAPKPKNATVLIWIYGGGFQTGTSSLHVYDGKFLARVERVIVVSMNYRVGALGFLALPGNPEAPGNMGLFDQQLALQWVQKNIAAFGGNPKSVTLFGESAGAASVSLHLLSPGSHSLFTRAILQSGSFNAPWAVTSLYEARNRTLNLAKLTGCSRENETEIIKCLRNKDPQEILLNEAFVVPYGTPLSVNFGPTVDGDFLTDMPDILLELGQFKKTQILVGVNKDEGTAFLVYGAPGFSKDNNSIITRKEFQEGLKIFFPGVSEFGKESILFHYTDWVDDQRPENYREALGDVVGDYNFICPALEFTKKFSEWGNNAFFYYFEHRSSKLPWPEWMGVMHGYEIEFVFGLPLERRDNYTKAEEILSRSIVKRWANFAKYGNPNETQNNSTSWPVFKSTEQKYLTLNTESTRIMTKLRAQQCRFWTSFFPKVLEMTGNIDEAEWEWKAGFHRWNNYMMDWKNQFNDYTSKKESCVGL
- Experiment Description: Inhibition of human serum BChE using butyrylthiocholine iodide as substrate at 30 uM preincubated for 20 mins followed by substrate addition measured after 5 mins by Ellman's method relative to control
One number for each entry, in %.

These solved cases illustrate the format of a correct answer.
Chemical Structure: CCOC(=O)c1ccc2nc(-c3ccc(C(=O)OC)cc3)c3c(c2c1)N(Cc1ccccc1)CCC3
Measured Parameter: inhibition
Display Unit: %
Measured Number: 6.61
//
Chemical Structure: CCOC(=O)c1ccc2nc(-c3cccnc3)c3c(c2c1)N(Cc1ccccc1)C(=O)CC3
Measured Parameter: inhibition
Display Unit: %
Measured Number: 4.42

// query inhibition value for entry `CCOC(=O)c1ccc2nc(-c3ccc(Cl)cc3)c3c(c2c1)NCCC3`
20.3
